# system_name: human MC4R (Homo sapiens)
# Construct: expressed in transfected cells
# assay_summary: 125NDP-α-MSH competitive binding to membranes of BHK cells expressing human MC4 receptor (filtration assay)
# test_settings: human MC4R, BHK cell membranes, 125NDP-α-MSH radioligand; read-out: MC4R binding Ki
Positions of bridges follow the written chain, without caps; N, C: chain ends. Non-standard residues stand in square brackets, D forms with d. Residues, ends and D or L forms follow the SMILES beside them. Sar = CNCC(=O)O
observable: Ki (nM)
Expressed in nM, but write only the number.

C[C@@H]1NC(=O)[C@@H]2CSSC[C@H](NC(=O)[C@H](Cc3c[nH]c4ccccc34)NC(=O)[C@H](CCCNC(=N)N)NC(=O)[C@@H](Cc3ccccc3)NC(=O)[C@H](Cc3c[nH]cn3)NC1=O)C(=O)N[C@@H](C)C(=O)N[C@@H](Cc1ccc(O)cc1)C(=O)N[C@@H](Cc1ccccc1)C(=O)N[C@@H](CCCCN)C(=O)N[C@@H](Cc1c[nH]c3ccccc13)C(=O)N2 [Chem. 80] (cyclo(AH[dF]RWCAYFKWC); disulfide 6-12); 0.16
CC(=O)NCCCC[C@@H]1NC(=O)[C@@H](Cc2ccccc2)NC(=O)[C@H](Cc2c[nH]cn2)NC(=O)[C@H](C)NC(=O)[C@@H]2CSSC[C@H](NC(=O)[C@H](Cc3c[nH]c4ccccc34)NC1=O)C(=O)N[C@@H](C)C(=O)N[C@@H](CCCCN)C(=O)N[C@H](CCCCN)C(=O)N[C@@H](CCCCN)C(=O)N[C@@H](Cc1c[nH]c3ccccc13)C(=O)N2 [Chem. 58] (cyclo(AH[dF]K(Ac)WCAK[dK]KWC); disulfide 6-12); 0.09

--- query ---
QUERY: Requested read-out: Ki. Entry: C[C@@H]1NC(=O)[C@@H]2CSSC[C@H](NC(=O)[C@H](CCCNC(=N)N)NC(=O)[C@H](CCCCN)NC(=O)[C@H](CCCCN)NC(=O)[C@H](CCCCN)NC1=O)C(=O)N(C)CC(=O)N[C@@H](Cc1c[nH]cn1)C(=O)N[C@H](Cc1ccccc1)C(=O)N[C@@H](Cc1c[nH]cn1)C(=O)N[C@@H](Cc1c[nH]c3ccccc13)C(=O)N2 [Chem. 74] (cyclo(AKKKRC[Sar]H[dF]HWC); disulfide 6-12)
RESULT: 0.08

* * *

# system_name: human MC4R (Homo sapiens, UniProt P32245)
# Construct: expressed in transfected cells
# Sequence (P32245 whole entry): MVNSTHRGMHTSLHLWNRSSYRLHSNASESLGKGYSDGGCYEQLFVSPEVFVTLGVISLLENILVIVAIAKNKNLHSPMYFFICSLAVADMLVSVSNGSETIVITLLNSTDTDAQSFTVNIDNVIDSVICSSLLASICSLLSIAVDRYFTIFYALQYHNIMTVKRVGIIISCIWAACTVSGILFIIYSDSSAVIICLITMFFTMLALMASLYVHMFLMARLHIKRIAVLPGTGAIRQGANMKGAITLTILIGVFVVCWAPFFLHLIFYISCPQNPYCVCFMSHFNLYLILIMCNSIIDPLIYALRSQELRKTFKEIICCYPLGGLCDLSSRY
# assay_summary: Functional cAMP assay (CisBio HTRF) in BHK cells expressing human MC4R
# Format: cell-based
# test_settings: BHK cells expressing human MC4R; '>' = highest dose used with no response; read-out: MC4R cAMP EC50
Positions of bridges follow the written chain, without caps; N, C: chain ends. Non-standard residues stand in square brackets, D forms with d. Residues, ends and D or L forms follow the SMILES beside them. Cit = NC(=O)NCCC[C@H](N)C(=O)O; Pen = CC(C)(S)[C@H](N)C(=O)O
observable: EC50 (nM)
Lab book: enter the figure in nM, no units written.

Worked set:
NCCCC[C@@H]1NC(=O)[C@@H]2CSSC[C@H](NC(=O)[C@H](Cc3c[nH]c4ccccc34)NC(=O)[C@H](CCCNC(N)=O)NC(=O)[C@@H](Cc3ccccc3)NC(=O)[C@H](Cc3c[nH]cn3)NC1=O)C(=O)N[C@@H](CCCCN)C(=O)N[C@@H](Cc1c[nH]cn1)C(=O)N[C@H](Cc1ccccc1)C(=O)N[C@@H](CCCNC(N)=O)C(=O)N[C@@H](Cc1c[nH]c3ccccc13)C(=O)N2 [Chem. 55] (cyclo(CKH[dF][Cit]WCKH[dF][Cit]W); disulfide 1-7); 0.1
C[C@@H]1NC(=O)[C@@H]2CSSC(C)(C)[C@H](NC(=O)[C@H](CCCNC(=N)N)NC(=O)[C@H](CCCCN)NC(=O)[C@H](CCCCN)NC(=O)[C@H](CCCCN)NC1=O)C(=O)N1CCC[C@H]1C(=O)N[C@@H](Cc1c[nH]cn1)C(=O)N[C@H](Cc1ccccc1)C(=O)N[C@@H](Cc1c[nH]cn1)C(=O)N[C@@H](Cc1c[nH]c3ccccc13)C(=O)N2 [Chem. 92] (cyclo(AKKKR[Pen]PH[dF]HWC); disulfide 6-12); 0.13

QUERY: Fill in the blank: the reported EC50 of C[C@@H]1NC(=O)[C@@H]2CSSC[C@H](NC(=O)[C@H](Cc3c[nH]c4ccccc34)NC(=O)[C@H](Cc3c[nH]cn3)NC(=O)[C@@H](Cc3ccccc3)NC(=O)[C@H](Cc3c[nH]cn3)NC1=O)C(=O)N[C@@H](C)C(=O)N[C@@H](CCCCN)C(=O)N[C@@H](CCCCN)C(=O)N[C@@H](CCCCN)C(=O)N[C@@H](Cc1c[nH]c3ccccc13)C(=O)N2 [Chem. 60] (cyclo(AH[dF]HWCAKKKWC); disulfide 6-12) is ____.
RESULT: 0.17

* * *

Listed here are compounds together with their documented MC1R/MC4R cAMP EC50 ratio.
# system_name: human MC4R (Homo sapiens)
# Construct: expressed in transfected cells
# assay_summary: Functional cAMP assay (CisBio HTRF) in BHK cells expressing human MC4R
# Assay type: cell-based
# test_settings: MC1R cAMP EC50 divided by MC4R cAMP EC50
Positions of bridges follow the written chain, without caps; N, C: chain ends. Non-standard residues stand in square brackets, D forms with d. Residues, ends and D or L forms follow the SMILES beside them. Thz = O=C(O)[C@@H]1CSCN1

C[C@@H]1NC(=O)[C@H](C)NC(=O)[C@@H]2CSSC[C@H](NC(=O)[C@H](Cc3c[nH]c4ccccc34)NC(=O)[C@H](C)NC(=O)[C@H](CCCCN)NC1=O)C(=O)N1CSC[C@H]1C(=O)N[C@@H](Cc1c[nH]cn1)C(=O)N[C@H](Cc1ccccc1)C(=O)N[C@@H](Cc1c[nH]cn1)C(=O)N[C@@H](Cc1c[nH]c3ccccc13)C(=O)N2 [Chem. 109] (cyclo(AAKAWC[Thz]H[dF]HWC); disulfide 6-12); >47
C[C@H]1NC(=O)[C@@H]2CSSC[C@H](NC(=O)[C@H](Cc3c[nH]c4ccccc34)NC(=O)[C@H](CCCNC(=N)N)NC(=O)[C@@H](Cc3ccccc3)NC(=O)[C@H](Cc3c[nH]cn3)NC1=O)C(=O)N[C@H](C)C(=O)N[C@@H](Cc1c[nH]cn1)C(=O)N[C@H](Cc1ccccc1)C(=O)N[C@@H](CCCNC(=N)N)C(=O)N[C@@H](Cc1c[nH]c3ccccc13)C(=O)N2; 98

Then this compound:
QUERY: Quick one: MC1R/MC4R cAMP EC50 ratio for C[C@@H]1NC(=O)[C@H](CCC(=O)O)NC(=O)[C@H](CCC(=O)O)NC(=O)[C@H](C)NC(=O)[C@@H]2CSSC[C@H](NC(=O)[C@H](Cc3c[nH]c4ccccc34)NC1=O)C(=O)N1CSC[C@H]1C(=O)N[C@@H](Cc1c[nH]cn1)C(=O)N[C@H](Cc1ccccc1)C(=O)N[C@@H](Cc1c[nH]cn1)C(=O)N[C@@H](Cc1c[nH]c3ccccc13)C(=O)N2 [Chem. 105] (cyclo(AEEAWC[Thz]H[dF]HWC); disulfide 6-12) ?
RESULT: >15

* * *

# system_name: human MC4R (Homo sapiens, UniProt P32245)
# Construct: expressed in transfected cells
# assay_summary: Functional cAMP assay (CisBio HTRF) in BHK cells expressing human MC4R
# Format: cell-based
# test_settings: MC1R cAMP EC50 divided by MC4R cAMP EC50
Positions of bridges follow the written chain, without caps; N, C: chain ends. Non-standard residues stand in square brackets, D forms with d. Residues, ends and D or L forms follow the SMILES beside them. Hyp = O=C(O)[C@@H]1C[C@@H](O)CN1; Pip = O=C(O)[C@@H]1CCCCN1; Thz = O=C(O)[C@@H]1CSCN1
// MC1R/MC4R cAMP EC50 ratio lookup, one value per entry

// known answers, use as guide
C[C@@H]1NC(=O)[C@@H]2CSSC[C@H](NC(=O)[C@H](Cc3c[nH]c4ccccc34)NC(=O)[C@H](CCCCN)NC(=O)[C@H](CCCCN)NC(=O)[C@H](CCCCN)NC1=O)C(=O)N1CCCC[C@H]1C(=O)N[C@@H](Cc1c[nH]cn1)C(=O)N[C@H](Cc1ccccc1)C(=O)N[C@@H](Cc1c[nH]cn1)C(=O)N[C@@H](Cc1c[nH]c3ccccc13)C(=O)N2 [Chem. 83] (cyclo(AKKKWC[Pip]H[dF]HWC); disulfide 6-12); >5
C[C@@H]1NC(=O)[C@@H]2CSSC[C@H](NC(=O)[C@H](Cc3c[nH]c4ccccc34)NC(=O)[C@H](CCCNC(=N)N)NC(=O)[C@@H](Cc3ccccc3)NC(=O)[C@@H]3C[C@@H](O)CN3C1=O)C(=O)N[C@@H](C)C(=O)N1C[C@H](O)C[C@H]1C(=O)N[C@H](Cc1ccccc1)C(=O)N[C@@H](CCCNC(=N)N)C(=O)N[C@@H](Cc1c[nH]c3ccccc13)C(=O)N2 [Chem. 14] (cyclo(A[Hyp][dF]RWCA[Hyp][dF]RWC); disulfide 6-12); >3
C[C@@H]1NC(=O)[C@H](CC(=O)O)NC(=O)[C@H](CCC(=O)O)NC(=O)[C@H](C)NC(=O)[C@@H]2CSSC[C@H](NC(=O)[C@H](Cc3c[nH]c4ccccc34)NC1=O)C(=O)N1CSC[C@H]1C(=O)N[C@@H](Cc1c[nH]cn1)C(=O)N[C@H](Cc1ccccc1)C(=O)N[C@@H](Cc1c[nH]cn1)C(=O)N[C@@H](Cc1c[nH]c3ccccc13)C(=O)N2 [Chem. 108] (cyclo(AEDAWC[Thz]H[dF]HWC); disulfide 6-12); >40

Okay, now this compound:
QUERY: API: value(readout= MC1R/MC4R cAMP EC50 ratio, system= human MC4R (Homo sapiens, UniProt P32245), query= O=C1N[C@H]2CSSC[C@H](NC(=O)[C@H](Cc3c[nH]c4ccccc34)NC(=O)[C@H](Cc3c[nH]cn3)NC(=O)[C@@H](Cc3ccccc3)NC(=O)[C@H](Cc3c[nH]cn3)NC(=O)[C@@H]3CSCN3C2=O)C(=O)N2CSC[C@H]2C(=O)N[C@@H](Cc2c[nH]cn2)C(=O)N[C@H](Cc2ccccc2)C(=O)N[C@@H](Cc2c[nH]cn2)C(=O)N[C@H]1Cc1c[nH]c2ccccc12 [Chem. 91] (cyclo(C[Thz]H[dF]HWC[Thz]H[dF]HW); disulfide 1-7) )
RESULT: >14
